Tested on: RPMI-8226
Assay: NCI tumour cell line growth inhibition, 48 h
Active and inactive are the calls of the source. No stated cut-off is given here; in the data, active = GI50 up to about 1.1 µM and inactive = higher.
We begin with a simple list: items and their reported GI50.

>  <MOLECULE>
CC(=O)NCC1OC2COC(c3ccccc3)OC2C2N=C(c3ccccc3)OC12 (stereo not given)

>  <GI50>
29.4 µM (inactive)

$$$$
>  <MOLECULE>
CO/N=C(\C(=O)N(C)n1cnnc1)c1csc(NC(c2ccccc2)(c2ccccc2)c2ccccc2)n1

>  <GI50>
> 10 µM (inactive)

$$$$
>  <MOLECULE>
COc1cc2c(c(OC)c1OC)-c1c(cc3c(c1OC)OCO3)CC(C)C(C)(O)C2OC(=O)c1ccccc1 (stereo not given)

>  <GI50>
22 µM (inactive)

$$$$
>  <MOLECULE>
COc1cc(CSc2ccc(O)cc2)cc(O)c1O

>  <GI50>
15.7 µM (inactive)

$$$$
>  <MOLECULE>
COc1cc2c(cc1OCCCOS(C)(=O)=O)N=C[C@@H]1CCCN1C2=O

>  <GI50>
> 100 µM (inactive)

$$$$

* * *

We begin with a simple list: items and their reported GI50.
System: MOLT-4
Experiment: NCI tumour cell line growth inhibition, 48 h
Calls of active or inactive are those of the source. Cut-off read from the data, not from the text of the source: active = GI50 up to about 1.1 µM and inactive = higher.

>  <MOLECULE>
COc1ccc2c3c([nH]c2c1[N+](=O)[O-])C(C)=NCC3

>  <GI50>
30.8 µM (inactive)

$$$$
>  <MOLECULE>
COc1ccc2nc(N/N=C/C(C)=N/Nc3cc(C)c4cc(OC)ccc4n3)cc(C)c2c1

>  <GI50>
21.2 µM (inactive)

$$$$
>  <MOLECULE>
CC(=O)NCC1OC2COC(c3ccccc3)OC2C2N=C(c3ccccc3)OC12 (centres undefined)

>  <GI50>
43.2 µM (inactive)

$$$$
>  <MOLECULE>
Cc1cc(CNC(=O)OCc2ccccc2)c(C)c2c1Oc1ccccc1O2

>  <GI50>
> 100 µM (inactive)

$$$$
>  <MOLECULE>
CCOC(=O)C1C(=O)C=C(c2cc(C)ccc2O)CC1c1cccc(Br)c1 (centres undefined)

>  <GI50>
16 µM (inactive)

$$$$
>  <MOLECULE>
COC(=O)/C=C/c1ccc2c(c1)[C@H](C(=O)OC)[C@@H](c1ccc(O)cc1)O2

>  <GI50>
8.45 µM (inactive)

$$$$
>  <MOLECULE>
c1ccc2c(c1)nc1n2CCCn2ccnc2-1

>  <GI50>
> 100 µM (inactive)

$$$$
>  <MOLECULE>
CC(C)(C)C1=Cc2cc3cc(C(C)(C)C)[nH]c(=O)c3cc2S(=O)(=O)N1

>  <GI50>
28.1 µM (inactive)

$$$$
>  <MOLECULE>
COC(=O)CCc1ccc2c(c1)CC1(C2)Cc2ccc3c(c2C1)CCC3 (centres undefined)

>  <GI50>
38.5 µM (inactive)

$$$$
>  <MOLECULE>
CC(=O)[C@@H]1C/C(=C\OCc2ccccc2)O[C@H]1C

>  <GI50>
> 100 µM (inactive)

$$$$
>  <MOLECULE>
CSc1nc(SC)c2cnn(CC3CO3)c2n1 (centres undefined)

>  <GI50>
2.17 µM (inactive)

$$$$
>  <MOLECULE>
CC1C(OS(=O)(=O)c2ccc3nc(S)sc3c2)CC2C3(C)CCC2(C(C)C(=O)O)C(O)C13 (centres undefined)

>  <GI50>
16.9 µM (inactive)

$$$$
>  <MOLECULE>
O=C(CCl)Nc1cc(Cl)c(Cl)cc1Cl

>  <GI50>
> 10 µM (inactive)

$$$$
>  <MOLECULE>
COC(=O)CC1c2ccccc2N2C(=O)Cc3c([nH]c4ccccc34)C12 (centres undefined)

>  <GI50>
> 100 µM (inactive)

$$$$
